- ASSAYED_TARGET: DLG1_3, Q12959
- Sequence (Q12959 457-571): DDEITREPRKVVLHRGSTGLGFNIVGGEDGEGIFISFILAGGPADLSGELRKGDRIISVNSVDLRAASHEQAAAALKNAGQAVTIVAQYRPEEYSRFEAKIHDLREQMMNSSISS
- PROTOCOL_NOTES: holdup assay
- Design: key: below the threshold = too weak to quantify, mostly under pKd 3.1 to 4
- STATED_CONDITIONS: plain residues with an end cap or a label only (N-terminal biotin on a linker: ado-ado)
ASSAY_READOUT: pKd

1. HDDYFYHDEL [RCN2, Q14257]
below the threshold
2. GNDPDRGTSI [GRID2, O43424]
below the threshold
3. SQPLLVHDDV [KIT, P10721]
below the threshold
4. NISARRFTLC [FAM167B, Q9BTA0]
4.06
5. STYCDYTIEI [FAM71C, Q8NEG0]
below the threshold
6. LPPPESESKV [KCNJ9, Q92806]
below the threshold
7. DSEEELPTRL [GRK6, P43250]
3.73
8. QQGLLPHSSC [TYRO3, Q06418]
below the threshold
